Item-by-item account of inhibition
- assay_procedure: H1N1 influenza NS1A inhibitors, functional cell based assay (AID 504329)
- test_parameters: percent inhibition, at 12.5 µM, hits give high values
Hit rate of the full screen: of about 340,000 compounds, about 1,000 (0.29%) were called active. A selection follows. Results with a measured potency or affinity are listed apart.
API: value field is a number in %; no unit string.

In [3]: df
Out[3]:
                                   compound  value_kind  scale_unit  observed_value
0  Cc1n[nH]c(=O)c2c(NC(=O)CSc3nc4ccccc4c(=O)n3-c3ccc(OC(F)F)cc3)oc(C)c12  inhibition           %            -4.1
1    O=C(NNC(=O)c1ccccc1Br)c1ccc2nc[nH]c2c1  inhibition           %            22.1
2  CN1CCc2c(sc3c2C(=O)NC(c2ccccc2)N3)C1 (centres undefined)  inhibition           %           -3.09
3  Cc1ccc(S(=O)(=O)NCCNC(=O)C2CCCNC2=O)cc1 (centres undefined)  inhibition           %            -2.4

[ask] Provide only the value of recorded inhibition for CN1C=C/C(=C\c2cc[n+](C)c3ccccc23)c2ccccc21
[reply] 1.31

---

- assay_procedure: H1N1 influenza NS1A inhibitors, functional cell based assay (AID 504329)
- test_parameters: percent inhibition, at 12.5 µM, hits give high values
Screen size: about 340,000 compounds; about 1,000 (0.29%) were called active. The list is a sample of the results. Measured potencies and affinities stand elsewhere.
value_kind: inhibition (%)
API: value field is a number in %; no unit string.

Below, each entry is followed by its recorded inhibition result.
>>> print(df.to_string())
                                   molecule  scale_unit  observed_value
0        COC(=O)c1sc2ncccc2c1OCc1cccc(Cl)c1           %             1.6
1  COc1ccc(N(CC(=O)NCc2ccc(Cl)cc2)S(=O)(=O)c2c(C)noc2C)cc1           %            6.25
2  Cc1ncc(CO)c(/C=N/NC(=S)Nc2ccc(Cl)c(Cl)c2)c1O           %            2.53
3         COc1ccc(CNc2nc3nc(C)cc(C)n3n2)cc1           %            1.24
4  COc1ccccc1NS(=O)(=O)c1cccc(NC(=O)c2cncc(Br)c2)c1           %           -6.77

[ask] Provide only the value of recorded inhibition for COc1ccc(CCNC(=O)c2ccc(CS(=O)(=O)Cc3cccc(C)c3)o2)cc1OC
[reply] 1.57

[ask] Provide only the value of recorded inhibition for COC(=O)c1ccccc1S(=O)(=O)NC(=O)c1ccccc1
[reply] -2.87

[ask] Provide only the value of recorded inhibition for COc1cc(/C=N/Nc2ccc(C(F)(F)F)cn2)cc(OC)c1O
[reply] -10.9

[ask] Provide only the value of recorded inhibition for COc1ccc(NC2c3ccccc3C(=O)N2Cc2ccc3c(c2)OCO3)cc1 (stereo unspecified)
[reply] 5.36

[ask] Provide only the value of recorded inhibition for N=C1c2ccccc2CN1NC(=O)c1ccc(Br)o1
[reply] -1.62

[ask] Provide only the value of recorded inhibition for COc1ccc(CN(CC(=O)NCc2ccccc2)C(=O)CCC(=O)Nc2ccccn2)cc1
[reply] -6.86
